tested on: Target C; assay: HiBiT protein abundance assay, Target C; format: cell-based, human; conditions: Homo sapiens, K562, 24 h, Table 13A, modified K562 cells
pIC50: −log10 of the molar value.
REPORTED_ENDPOINT: pIC50

Below, 4 molecules whose answers are already recorded.
c1nc2c(-c3cn[nH]c3)ccc(-c3ccc(N4CCC45CCNC5)nn3)c2s1 (centres unmarked) [Compound 277] = 5.00 to 6.00
CN(c1ccc(-c2ccc(-n3cccn3)c3nc[nH]c23)nn1)[C@@H]1C[C@H]2CC[C@@H](C1)N2 [Compound 170] = < 5.00
c1nc2c(-c3cn[nH]c3)ccc(-c3cnc(N4CCN[C@H](C5CC5)C4)nn3)c2s1 [Compound 451] = 5.00 to 6.00
CC1(C)CC(Nc2ccc(-c3ccc(-n4cccn4)c4[nH]ncc34)nn2)CC(C)(C)N1 [Compound 558] = > 7.00

Give the measured pIC50 of CN(c1ncc(-c2ccc(-c3cn[nH]c3)c3ncsc23)nn1)[C@H]1C[C@]2(C)CC[C@](C)(C1)N2 [Compound 424] .
> 7.00

CCN(c1ccc(C2=CC=C(c3cn[nH]c3)C3N=CSC23)nn1)[C@@H]1C[C@H]2CC[C@@H](C1)N2 (some centres unmarked) [Compound 203] ?
> 7.00

Follow-up item: CN(c1ccc(-c2cc(F)c(-c3cn[nH]c3)c3cn[nH]c23)nn1)[C@@H]1C[C@H]2CC(F)(F)[C@@H](C1)N2 (stereo in doubt) [Compound 378]
> 7.00

----------
assay: Transwell assay for membrane efflux and permeability; type: in vitro ADME, Canine; settings: dog; MDCK-BCRP or MDCKII-MDR1 transwell, test compound 1 μM, 2 hours at 37° C.
REPORTED_ENDPOINT: efflux ratio at 2 h, 1 μM

As a guide, the following entries are already answered.
CN(c1ccc(-c2ccc(-c3cn[nH]c3)cn2)nn1)[C@@H]1C[C@H]2CC[C@@H](C1)N2 = < 1.5
CN(c1ccc(-c2ccc(-c3cn[nH]c3)c3cn[nH]c23)nn1)[C@@H]1C[C@H]2CC[C@@H](C1)N2 = > 5
CN(c1ccc(-c2ccc(-c3cn[nH]c3)c3cn[nH]c23)nn1)C1CC(C)(C)NC(C)(C)C1 = > 5
Fc1cc(-c2ccc(O[C@@H]3C[C@H]4CC[C@@H](C3)N4)nn2)c2sncc2c1-c1cn[nH]c1 = > 5

Can you look up the measured efflux ratio at 2 h, 1 μM of CC(C)(C)C1CN(c2ncc(-c3ccc(-n4cccn4)c4[nH]ncc34)nn2)CCN1 (stereo not drawn) for me?
< 1.5

Thanks! And Fc1cc(-c2ccc(OC3CC4CC(F)(F)C(C3)N4)nn2)c2[nH]ncc2c1-c1cn[nH]c1 (stereo not drawn) ?
< 1.5

Next: Fc1cc(-c2ccc(O[C@@H]3C[C@H]4CC[C@@H](C3)N4)nn2)c2[nH]ncc2c1-c1cn[nH]c1
> 5

What would you report for CN(c1ccc(-c2ccc(-n3cccn3)c3cn[nH]c23)nn1)[C@@H]1C[C@H]2CC[C@@H](C1)N2 ?
> 5

# iterate: COc1nc(-c2ccc(N(C)C3CC(C)(C)NC(C)(C)C3)nn2)ccc1-c1cn[nH]c1
> 5

Quick one: COc1cc(-c2ccc(-c3ccc(O[C@@H]4C[C@H]5CC[C@@H](C4)N5)nn3)c3scnc23)cnn1
> 5

Now give it for CC(C)(C)NC1CCN(c2ccc(-c3ccc(-c4cn[nH]c4)c4ncsc34)nn2)C1 (stereo not drawn) too.
> 5

Request: CN(c1ccc(-c2ccc(-c3ccc(=O)n(C)c3)c3scnc23)nn1)C1CC(C)(C)NC(C)(C)C1
> 5

----------
system: Target C; test: HiBiT protein abundance assay, Target C; format: cell-based, human; settings: Homo sapiens, K562, 24 h, Table 13A, modified K562 cells
pIC50: −log10 of the molar value.
Quick reference for pIC50 among some compounds

Recorded pIC50, per entry:
CN(c1ccc(-c2ccc(-c3ccn(C)c(=O)c3)c3ncsc23)nn1)C1CC(C)(C)NC(C)(C)C1 [Compound 279] = 5.00 to 6.00
C[C@@H]1C[C@H](N(C)c2ccc(-c3ccc(-n4cccn4)c4cn[nH]c34)nn2)CCN1 [Compound 103] = 5.00 to 6.00
c1nc2c(-c3cn[nH]c3)ccc(-c3cnc(N4CCC(NC5CC5)C4)nn3)c2s1 (stereo not shown) [Compound 416] = 5.00 to 6.00
c1nc2c(-c3cn[nH]c3)ccc(-c3ccc(N4CCNC(C5CC5)C4)nn3)c2s1 (stereo not shown) [Compound 417] = 5.00 to 6.00
c1n[nH]cc1-c1ccc(-c2ccc(NC3CNC3)nn2)c2[nH]ncc12 [Compound 237] = < 5.00

Suppose we examine the compound CC(C)(C)C1CN(c2ncc(-c3ccc(-n4cccn4)c4[nH]ncc34)nn2)CCN1 (stereo not shown) [Compound 572] ; what pIC50 value has been reported?
6.00 to 7.00

Repeat for the following compound: C[C@@H]1C[C@@H](N(C)c2ccc(-c3ccc(-c4cn[nH]c4)c4cc[nH]c34)nn2)CCN1 [Compound 107]
5.00 to 6.00

Also need CN(c1ncc(-c2ccc(-c3cn[nH]c3)c3ncsc23)nn1)C1CC2CCC(C1)N2 (stereo not shown) [Compound 443] , thanks.
> 7.00

Please answer likewise for CN(c1ccc(-c2ccc(-c3cnn(C)c(=O)c3)c3ncsc23)nn1)C1CC(C)(C)NC(C)(C)C1 [Compound 331]
< 5.00

Consider next the compound Cc1nc(-c2ccc(-c3cnc(N(C)[C@@H]4C[C@H]5CCC[C@@H](C4)N5)nn3)c3scnc23)cs1 [Compound 579] in the same way.
6.00 to 7.00

Same again, this time with Cc1cc(-c2ccc(-c3cnc(N(C)[C@@H]4C[C@H]5CCC[C@@H](C4)N5)nn3)c3scnc23)sn1 [Compound 580]
> 7.00

What do you have for Cn1cc(-c2ccc(-c3ccc(N[C@@H]4C[C@H]5CC[C@@H](C4)N5)nn3)c3[nH]ncc23)nn1 [Compound 324] ?
5.00 to 6.00

Input c1n[nH]cc1-c1ccc(-c2ccc(N3CCC4(CCNC4)CC3)nn2)c2[nH]ncc12 [Compound 240]
< 5.00

Can you check c1nc2c(-c3cn[nH]c3)ccc(-c3ccc(N[C@@H]4C[C@H]5CC[C@@H](C4)N5)nn3)c2s1 [Compound 202] next?
6.00 to 7.00

Same for FC1(F)C[C@@H]2C[C@@H](Oc3ccc(-c4ccc(-c5cn[nH]c5)c5cn[nH]c45)nn3)C[C@H]1N2 (stereo in doubt) [Compound 373]
5.00 to 6.00

Quick one: CN(c1ncc(-c2ccc(-n3cccn3)c3[nH]ncc23)nn1)[C@@H]1C[C@H]2CCC[C@@H](C1)N2C [Compound 575]
5.00 to 6.00

Request: C[C@@H]1C[C@H](N(C)c2ccc(-c3ccc(-c4cn[nH]c4)c4cn[nH]c34)nn2)CCN1 [Compound 101]
5.00 to 6.00

Can you handle CN(c1ccc(-c2ccc(-c3cnn(C)n3)c3cn[nH]c23)nn1)C1CCNCC1 [Compound 315] next?
< 5.00

Note, next up: c1cnn(-c2ccc(-c3ccc(N4CCC(NC5CC5)C4)nn3)c3[nH]ncc23)c1 (stereo not shown) [Compound 347]
< 5.00

----------
Each entry below carries its recorded pIC50.
system: HTT; test: Splicing RT-qPCR assay, HTT mRNA canonical junction (CJ) and alternative junction (AJ); type: cell-based, human; conditions: Homo sapiens, RT-qPCR panel, canonical junction mRNA; compound concentration having 50% response in CJ decrease; read-out: HTT IC50 (decrease in CJ mRNA levels)
pIC50: −log10 of the molar value.

CN(c1ccc(-c2ccc(-c3cnn(C)c(=O)c3)c3ncsc23)nn1)C1CC(C)(C)NC(C)(C)C1 [Compound 331] = 5.00 to 6.00
CN(c1ncc(-c2ccc(-n3cccn3)c3[nH]ncc23)nn1)[C@@H]1C[C@H]2CCC[C@@H](C1)N2C [Compound 575] = 6.00 to 7.00
c1n[nH]cc1-c1ccc(-c2ccc(N3CCCC4(CNC4)C3)nn2)c2[nH]ncc12 [Compound 251] = < 5.00
CN(c1ccc(-c2ccc(-c3cn[nH]c3)c3ncsc23)nn1)C1CC(C)(C)NC(C)(C)C1 [Compound 132] = 6.00 to 7.00
CC1(C)CC(Nc2ccc(-c3ccc(-n4cccn4)c4[nH]ncc34)nn2)CC(C)(C)N1 [Compound 558] = 6.00 to 7.00

Fill in the blank: the reported pIC50 of Cc1ncc(-c2ccc(-c3ccc(O[C@@H]4C[C@H]5CC[C@@H](C4)N5)nn3)c3scnc23)s1 [Compound 348] is ____.
> 7.00

Now consider c1cnn(-c2ccc(-c3ccc(N[C@@H]4C[C@H]5CC[C@@H](C4)N5)nn3)c3scnc23)c1 [Compound 343] and answer again.
> 7.00

Follow-up item: Cc1ncc(-c2ccc(-c3ccc(N(C)C4CC(C)(C)NC(C)(C)C4)nc3)c3ncsc23)o1 [Compound 201]
5.00 to 6.00

Here is the next compound: Cn1ncc(-c2ccc(-c3ccc(OC4CC(C)(C)NC(C)(C)C4)nn3)c3[nH]ncc23)n1 [Compound 316]
6.00 to 7.00

// same read-out, input: CN(c1ccc(-c2ccc(-c3cn[nH]c3)c3ncsc23)nn1)[C@@H]1C[C@H]2CCC[C@@H](C1)N2 [Compound 226]
> 7.00

Then what about the compound CN(c1ncc(-c2ccc(-c3cn[nH]c3)c3ncsc23)nn1)[C@H]1C[C@]2(C)CC[C@](C)(C1)N2 [Compound 424] ?
> 7.00

Entry to check: FC1(F)C[C@@H]2C[C@@H](Oc3ccc(-c4ccc(-c5cn[nH]c5)c5cn[nH]c45)nn3)C[C@H]1N2 (stereo in doubt) [Compound 373]
6.00 to 7.00

Repeat with Cc1[nH]ncc1-c1ccc(-c2ccc(N(C)C3CC(C)(C)NC(C)(C)C3)nn2)c2ncsc12 [Compound 176]
< 5.00
